system: AmpC-derepressed Enterobacter cloacae; assay: microbe, parasite or virus in culture; type: cell-based; details: Enterobacter cloacae, E. cloacae isolate no. 5420
MIC vs 0.5 µg/mL: less than gives 1 (yes); not less than gives 0 (no).

smiles-str	target-or-system	answer-label
C[C@@H](O)[C@H]1C(=O)N2C(C(=O)O)=C(S[C@@H]3CN[C@H](C(=O)N(C)C)C3)[C@H](C)[C@H]12	AmpC-derepressed Enterobacter cloacae	1 (yes)
C[C@H]1COc2c(N3CCN(C)CC3)c(F)cc3c(=O)c(C(=O)O)cn1c23	AmpC-derepressed Enterobacter cloacae	1 (yes)
NCC[C@H](O)C(=O)N[C@@H]1C[C@H](N)[C@@H](O[C@H]2O[C@H](CN)[C@@H](O)[C@H](O)[C@H]2O)[C@H](O)[C@H]1O[C@H]1O[C@H](CO)[C@@H](O)[C@H](N)[C@H]1O	AmpC-derepressed Enterobacter cloacae	0 (no)
CCO/N=C(\C(=O)N[C@@H]1C(=O)N2C(C(=O)[O-])=C(Sc3nc(-c4cc[n+](C)cc4)cs3)CS[C@H]12)c1nsc(N)n1	AmpC-derepressed Enterobacter cloacae	0 (no)

---

tested on: ESBL-producing Klebsiella pneumoniae; assay: Susceptibility testing MIC/MBC, broth microdilution (Example 2); format: cell-based; conditions: K. pneumonia (10) clinical isolates
Entries and their MIC range values follow.

smiles-str	MIC range
C[C@@H](O)[C@H]1C(=O)N2C(C(=O)O)=C(S[C@@H]3CN[C@H](C(=O)N(C)C)C3)[C@H](C)[C@H]12	0.03 to 0.06 µg/mL
CCO/N=C(\C(=O)N[C@@H]1C(=O)N2C(C(=O)[O-])=C(Sc3nc(-c4cc[n+](C)cc4)cs3)CS[C@H]12)c1nsc(N)n1	8 to 1024 µg/mL
CN(C)c1cc(NC(=O)CNC(C)(C)C)c(O)c2c1C[C@H]1C[C@H]3[C@H](N(C)C)C(O)=C(C(N)=O)C(=O)[C@@]3(O)C(O)=C1C2=O	0.125 to 1 µg/mL
NCC[C@H](O)C(=O)N[C@@H]1C[C@H](N)[C@@H](O[C@H]2O[C@H](CN)[C@@H](O)[C@H](O)[C@H]2O)[C@H](O)[C@H]1O[C@H]1O[C@H](CO)[C@@H](O)[C@H](N)[C@H]1O	1 to 32 µg/mL

---

system: P. aeruginosa; test: Susceptibility testing MIC/MBC, broth microdilution (Example 2); assay type: cell-based, Pseudomonas aeruginosa; conditions: P. aeruginosa (20) clinical isolates
Measured MIC range, listed per entry for reference.

compound	target-or-system	MIC range
C[C@@H](O)[C@H]1C(=O)N2C(C(=O)O)=C(S[C@@H]3CN[C@H](C(=O)N(C)C)C3)[C@H](C)[C@H]12 [Meropenem]	P. aeruginosa	0.125 to 16 µg/mL
CCO/N=C(\C(=O)N[C@@H]1C(=O)N2C(C(=O)[O-])=C(Sc3nc(-c4cc[n+](C)cc4)cs3)CS[C@H]12)c1nsc(N)n1 [Ceftaroline]	P. aeruginosa	8 to 256 µg/mL
CN(C)c1cc(NC(=O)CNC(C)(C)C)c(O)c2c1C[C@H]1C[C@H]3[C@H](N(C)C)C(O)=C(C(N)=O)C(=O)[C@@]3(O)C(O)=C1C2=O [Tigecycline]	P. aeruginosa	2 to 32 µg/mL
C[C@H]1COc2c(N3CCN(C)CC3)c(F)cc3c(=O)c(C(=O)O)cn1c23 [Levofloxacin]	P. aeruginosa	0.25 to 32 µg/mL
NCC[C@H](O)C(=O)N[C@@H]1C[C@H](N)[C@@H](O[C@H]2O[C@H](CN)[C@@H](O)[C@H](O)[C@H]2O)[C@H](O)[C@H]1O[C@H]1O[C@H](CO)[C@@H](O)[C@H](N)[C@H]1O [Amikacin]	P. aeruginosa	2 to 16 µg/mL
